System: EKVX NSCLC
Test: NCI tumour cell line growth inhibition, 48 h
The entries below are paired with their reported TGI.

compound: O=C1C=C(N2CC2)C(=O)C=C1N1CC1
measure-name: TGI
reading: 4.84 µM

Query: Name the recorded TGI for `C=Cc1cc2c(cc1O)CC[C@@H]1[C@@H]2CC[C@]2(C)[C@@H](O)CC[C@@H]12` .
Reply: 29 µM

Query: And for `CC(=O)O[C@H]1C(=O)[C@@]2(C)[C@H]([C@H](OC(=O)c3ccccc3)[C@]3(O)C[C@H](OC(=O)[C@H](O)[C@@H](NC(=O)CC(C)C)c4ccccc4)C(C)=C1C3(C)C)[C@]1(OC(C)=O)CO[C@@H]1C[C@@H]2O` ?
Reply: > 10 µM

Query: And for `COc1cc2ccc(/C(C)=N/OC(C)=O)cc2cc1OC` ?
Reply: > 100 µM

Query: And for `O=C1CC(c2ccc[nH]2)=NN1c1ccccc1` ?
Reply: > 100 µM

Query: And for `NCCCc1c(-c2ccccc2)nc(N)[nH]c1=O` ?
Reply: > 100 µM

Query: And for `C/C(=N\O)c1cccc(Nc2nc3ccccc3c3occc23)c1` ?
Reply: 25.6 µM

Query: And for COC(=O)[C@H](Cc1ccccc1)NP(=O)(O)OCC1OC(n2cc(C)c(=O)[nH]c2=O)CC1N=[N+]=[N-] (stereo partly specified) ?
Reply: > 100 µM

Query: And for CC(NC(=O)C(N)CC(=O)O)NC(=O)N1CCOCC1 (stereo unspecified) ?
Reply: > 100 µM

Query: And for `CCc1n[nH]c(=O)n1NC(=O)c1ccccc1C(=O)O` ?
Reply: > 100 µM

Query: And for `CN(C)CCNC1=CC(=O)c2c(O)ccc(O)c2C1=O` ?
Reply: 25.6 µM

Query: And for CC1(C)CCC2(C(=O)O)CC[C@]3(C)C(=CCC4C5(C)CC[C@H](OC6OC(C(=O)O)C(O)C(OC7OC(CO)C(O)C(O)C7O)C6OC6OC(CO)C(O)C(O)C6O)C(C)(C)C5CCC43C)C2C1 (stereo partly specified) ?
Reply: > 100 µM

Query: And for `CN(C)CCCn1c(-c2cc(C(C)(C)C)c(O)c(C(C)(C)C)c2)csc1=Nc1ccccc1` ?
Reply: 4.26 µM

Query: And for `O=C(Nc1ccc(Cl)cc1)c1cc2cc(F)ccc2cc1O` ?
Reply: 22.3 µM

Query: And for `CC(C)c1cccc(C(C)C)c1N=C(N)C#N` ?
Reply: > 100 µM

Query: And for COC1CC2C=CC3C4OC2(/C(C)=C/C(C)C(C(C)O)OC1=O)C3C(O)C(C)C4OC(=O)c1ccc[nH]1 (stereo unspecified) ?
Reply: > 100 µM

Query: And for `O=C(O)CN(c1ccccc1)S(=O)(=O)c1ccc(Cl)cc1` ?
Reply: > 100 µM

Query: And for CCC1CCCCN1C(=S)N/N=C(\C)c1ccccn1 (stereo unspecified) ?
Reply: 4.8 µM

Query: And for O=CC1OC(=O)c2cc(O)c(O)c(O)c2-c2c(cc(O)c(O)c2O)C(=O)OC1C(O)C(O)CO (stereo unspecified) ?
Reply: > 100 µM

Query: And for CC(C)CC1[C@@H](OCc2ccccc2)COS(=O)(=O)N1Cc1ccccc1 (stereo partly specified) ?
Reply: > 100 µM

Query: And for O=C1CCC2=C3C4CCCCC4C(=O)C4CCCC(OC2C1)C34 (stereo unspecified) ?
Reply: > 100 µM

Query: And for `O=C(/C=C\Nc1ccccc1O)C(Cl)(Cl)Cl` ?
Reply: > 100 µM

Query: And for COc1ccc2c(c1)CCCN1CCc3cc(OC)c(OC)cc3C21 (stereo unspecified) ?
Reply: > 100 µM

Query: And for CCC(c1ccc(OC)cc1)C(CC)c1ccc(O)c(CN2CCCC2)c1 (stereo unspecified) ?
Reply: 19.3 µM

Query: And for `CC(C)(C)OC(=O)Nc1cc(-c2ccccc2)co1` ?
Reply: > 100 µM

Query: And for `O=c1[nH]c(Nc2cccc(Br)c2)nc2nc[nH]c12` ?
Reply: > 100 µM
